system: RIZ GTPase domain (GST-G) (Rattus norvegicus)
Construct: a fragment of RIZ from amino acid position 760-949 (RIZ 760-949), containing the putative GTPase domain; made in house; E. coli XL-1 blue is printed only for pKG7.1S)
Sequence (Q63755 760-949): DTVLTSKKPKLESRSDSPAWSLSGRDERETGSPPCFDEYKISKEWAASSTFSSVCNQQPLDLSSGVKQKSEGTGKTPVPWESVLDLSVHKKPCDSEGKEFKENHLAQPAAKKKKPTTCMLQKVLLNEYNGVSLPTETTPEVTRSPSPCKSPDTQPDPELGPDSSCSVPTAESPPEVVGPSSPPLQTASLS
measurementProtocol: competition of unlabeled nucleotides for GTP binding of RIZ GTPase domain
reportedConditions: 20 mM unlabeled nucleotide, 1 hr before α-32P-GTP
parameter: effect of excess unlabeled nucleotide on binding of RIZ GTPase to radiolabeled GTP

| smilesText | observedMeasurement |
| --- | --- |
| O=c1ccn([C@@H]2O[C@H](COP(=O)(O)OP(=O)(O)OP(=O)(O)O)[C@@H](O)[C@H]2O)c(=O)[nH]1 | did not effect binding |
| Nc1ncnc2c1ncn2[C@@H]1O[C@H](COP(=O)(O)OP(=O)(O)OP(=O)(O)O)[C@@H](O)[C@H]1O | did not effect binding |
| Nc1ccn([C@@H]2O[C@H](COP(=O)(O)OP(=O)(O)OP(=O)(O)O)[C@@H](O)[C@H]2O)c(=O)n1 | did not effect binding |
